These data points were gathered from PubChem BioAssay.

Consider the following compounds; for each one, report its composite z-score.
Molecular target: Dihydroorotate dehydrogenase (quinone), mitochondrial (Plasmodium falciparum (isolate 3D7)) (UniProt Q08210)
Sequence (Q08210 whole entry, looked up): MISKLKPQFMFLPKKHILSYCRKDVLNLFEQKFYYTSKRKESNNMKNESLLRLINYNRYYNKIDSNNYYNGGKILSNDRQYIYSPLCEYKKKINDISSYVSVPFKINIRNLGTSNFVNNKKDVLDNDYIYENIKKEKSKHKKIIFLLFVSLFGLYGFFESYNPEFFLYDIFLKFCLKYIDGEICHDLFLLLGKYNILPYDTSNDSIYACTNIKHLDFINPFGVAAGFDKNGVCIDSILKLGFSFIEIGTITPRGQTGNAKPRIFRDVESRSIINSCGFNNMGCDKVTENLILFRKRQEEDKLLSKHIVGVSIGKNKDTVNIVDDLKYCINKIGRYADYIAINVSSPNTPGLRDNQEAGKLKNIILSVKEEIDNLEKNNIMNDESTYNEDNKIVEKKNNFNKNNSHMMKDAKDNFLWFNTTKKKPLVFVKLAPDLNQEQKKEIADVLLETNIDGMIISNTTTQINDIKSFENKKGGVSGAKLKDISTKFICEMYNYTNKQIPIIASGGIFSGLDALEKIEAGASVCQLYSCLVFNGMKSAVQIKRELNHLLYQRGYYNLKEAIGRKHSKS
Test: PfDHODH enzyme inhibitors, primary screen, biochemical, C-terminal His tag, absorbance 600 nm (AID 1175);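 note: recombinant parasite enzyme with a five histidine tag at its C terminus; test concentration not given here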
Details: DCIP absorbance 600 nm, higher = more signal, called active from +8 up or from −8 down
The source made the active and inactive calls.

// solved cases for composite z-score follow
[Q] Return reported composite z-score; argument: CCOC(=O)C[C@H]1[C@H](OC(=O)c2ccc(C(=O)c3ccccc3)cc2)[C@@H](NC(=O)Cc2ccc(OC)cc2)c2cc(OCCCO)ccc2N1C(=O)Cc1ccc(OC)cc1
[A] 0.735 (inactive)

[Q] Looking for the measured composite z-score of CCOC(=O)C[C@H]1[C@H](OC(=O)Cc2ccc3c(c2)OCO3)[C@@H](NC(=O)c2ccc3ccccc3c2)c2cc(OCCCO)ccc2N1C(=O)c1ccc2ccccc2n1 , can you help?
[A] 0.623 (inactive)

Now take the following compound into account.
[Q] For the compound shown here, CC(C)[Si](C#C[Si](C(C)C)(C(C)C)C(C)C)(O[C@H](C)c1cn([C@H](C)c2ccccc2)nn1)C(C)C , give the reported composite z-score.
[A] -0.32 (inactive)

====

Tested on: Sonic hedgehog protein (Shh)
Experiment: small-molecule binders of Shh protein, primary screen, biochemical, small-molecule microarray, 635/667 nm fluorescence (AID 1151);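 note: Shh protein binding to compounds spotted on small-molecule microarray slides; score combines spot fluorescence intensity with signal-to-noise across triplicate slides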
Conditions: small-molecule microarray binding, 635 nm fluorescence; higher = more signal
Measurement name: composite z-score
Numbers only.

Known composite z-score results, listed for orientation:
[Q] Returns the measured composite z-score for the input compound. Input: COCCOC(=O)N1C(=O)[C@@]2(c3cc(C#CCCO)ccc31)[C@H](c1ccccc1OCCO)N1[C@H](c3ccccc3)[C@H](c3ccccc3)OC(=O)[C@H]1[C@@H]2C(=O)NC[C@H](O)c1ccccc1
[A] 1.56

[Q] I have this compound here, COC(=O)C(CC#Cc1ccc2c(c1)[C@]1(C(=O)N2)[C@H](C(=O)O)[C@H]2C(=O)O[C@H](c3ccccc3)[C@H](c3ccccc3)N2[C@@H]1c1ccc(OCCO)cc1)C(=O)OC , and I need its recorded composite z-score.
[A] 0.969

[Q] Entry under review: [N-]=[N+]=NCc1ccccc1C[C@@]1(C(=O)O)N=C(c2ccc(OCCCO)cc2)O[C@@H]1c1ccccc1 . Reported composite z-score?
[A] -0.515

Give measured composite z-score for every item shown.
1. COc1ccc([Si](C)(C)[C@H]2[C@H](CCO)O[C@@]3(C(=O)N(Cc4ccc(N5C(=O)c6cccc7cccc5c67)cc4)c4ccccc43)[C@@H]2C)cc1
2. CC(C)[C@@H](C(=O)O)n1cc(-c2ccccn2)nn1
3. CC1CC/C=C\[C@H]2OC34C=CCN(C(C)C)C(=O)[C@H]3N(C(CO)C(C)C)C(=O)[C@@H]4C2C(=O)O1 (stereo not given in full)
4. C=C(C(=O)CC[C@@H](OC(C)=O)c1ccccc1OCCO)C(C)C
5. CC(C)(C)OC(=O)CC[C@@]12N=C(c3ccc(OCCCO)cc3)O[C@@H]1c1ccccc1N(Cc1ccccc1)C2=O

[A]
1. -0.0681
2. 0.673
3. -0.137
4. 1.09
5. 0.657

Provide the reported composite z-score of each entry below, same order.
1. COc1ccc([Si](C)(C)[C@H]2[C@H](CC(=O)N3Cc4ccccc4C[C@H]3CO)O[C@@]3(C(=O)N(Cc4cccc(N5C(=O)COc6ccccc65)c4)c4ccccc43)[C@@H]2C)cc1
2. O=C(O)[C@H]1C[C@H]2C(=O)NCC(=O)N2[C@H]1c1cccc(OCCO)c1
3. C=CC[C@@]1(C(=O)NCc2ccccc2)N=C(c2ccc(OCCCO)cc2)O[C@@H]1c1ccccc1
4. CC(C)[Si](C#C[Si](C(C)C)(C(C)C)C(C)C)(O[C@H](C)c1cn([C@H](C)c2ccccc2)nn1)C(C)C

[A]
[2, 0.821, -0.435, 1.14]

Hey, quick one: what's composite z-score for each of these?
1. C=CCNC(=O)[C@@H]1[C@H]2C(=O)O[C@H](c3ccccc3)[C@H](c3ccccc3)N2[C@H](c2ccc(O)cc2)[C@@]12C(=O)Nc1ccc(C#Cc3ccc(OC)cc3)cc12
2. C=C1C=C(Br)C2(OCCCO2)[C@H]2OC12 (stereo not given in full)
3. C[N+](C)(C)CCCC[C@@H]1NC(=O)[C@H]2C[C@@H](C(=O)NCCCCCN)[C@@H](c3cccc(OCCO)c3)N2C1=O

[A]
1. 0.551
2. 0.411
3. -0.197

====

Assay: basal RPMI8226 mitochondrial membrane potential changes, profiling panel, cell-based, JC-1 fluorescence, 24 h, 100 nL compound (AID 1169); note: test concentration not given here
Details: RPMI8226 myeloma, JC-1 mitochondrial potential fluorescence, higher = more signal
Hi there, I'd appreciate the recorded z-score for every entry that follows.
One number for each entry.

[Q] Fill in the blank: the reported z-score of Cc1ccc(S[C@]2(C(=O)NCCN3CCOCC3)CC(=O)N(Cc3cc(C(F)(F)F)cc(C(F)(F)F)c3)[C@@H]2c2ccc(CO)cc2)cc1 is ____.
[A] -0.0854

[Q] Could you share which z-score value was measured for C=CCC(OC(C)=O)[C@@H]1[C@@H](N(Cc2ccc(-c3cccc(C(F)(F)F)c3)o2)C(=O)c2ccc(-c3ccccc3)cc2)c2cc(OCCCO)ccc2N1C(=O)Cc1ccc(OC)cc1 (some centres not stated) ?
[A] -0.598

[Q] Returns the measured z-score for the input compound. Input: COCCCNC(=O)[C@@]1(Cc2ccccc2)N=C(c2ccc(OCCCO)cc2)O[C@H]1c1ccccc1N=[N+]=[N-]
[A] -1.1

[Q] If you can, please state the reported z-score value of CC(C)(C)OC(=O)CC[C@]1(C(=O)NCc2ccccc2)COC(c2ccc(OCCCO)cc2)=N1 .
[A] -0.291

[Q] Any idea what its z-score is? The compound is CC(C)C[C@@H]1NC(=O)[C@H]2C[C@@H](C(=O)NCCCC[N+](C)(C)C)[C@@H](c3cccc(OCCO)c3)N2C1=O
[A] -0.173

Hello, I would appreciate it if you could give z-score for each entry below.
1. COC(=O)C1=CC(c2ccc(CO)cc2)=CC(C2CC2)N(C)C=C1C(=O)OC (configuration not stated)
2. O=C(N1CCCCC1)[C@@]1(Cc2ccccc2)N=C(c2ccc(OCCCO)cc2)O[C@H]1c1ccccc1

[A]
[0.515, -0.982]

====

Experiment: binders of probe aFGF10 on microarray, primary screen, stem cell growth factor project, biochemical, small-molecule microarray, fluorescence 635/667 (AID 1071);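 note: score merges 667 nm spot intensity and signal to noise from triplicate slides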
Details: higher = more signal
The following ranges of composite z-score define the classes used here: lo (below 0.05), med (0.05 to below 0.4), hi (0.4 or more)

[Q] Which bin, given its composite z-score, does COCCOC(=O)N1C(=O)[C@@]2(c3cc(C#CCCO)ccc31)[C@H](c1ccccc1OCCO)N1[C@H](c3ccccc3)[C@H](c3ccccc3)OC(=O)[C@H]1[C@@H]2C(=O)NC[C@H](O)c1ccccc1 occupy?
[A] med

[Q] Just checking, what class would you give C=CCC(OC(C)=O)[C@@H]1[C@@H](N(Cc2cccc3ccccc23)C(=O)c2cccc3ccccc23)c2cc(OCCCO)ccc2N1C(=O)Cc1ccc(OC)cc1 (stereo partly drawn) here?
[A] med

[Q] Assign a bin to O=C1O[C@@H](c2ccccc2)[C@@H](c2ccccc2)N2[C@@H](c3ccc(OCCO)cc3)[C@]3(C(=O)Nc4ccc(C#CC5(O)CCCCCC5)cc43)[C@@H](C(=O)NC[C@H](O)c3ccccc3)[C@H]12
[A] hi

[Q] For this compound, which bin applies? CC(=O)OC(C/C=C\B1OC(C)(C)C(C)(C)O1)c1ccccc1 (stereo not drawn)
[A] lo

[Q] Kindly state the category for this compound: C=C1C=C(Br)C2(OCCCO2)[C@H]2OC12 (stereo partly drawn)
[A] med

Next:
[Q] Bin this entry: O=c1n(-c2ccccc2)c(=O)n2n1CC(COc1ccccc1)=C1[C@@H](CCc3ccccc3)OB(O)C[C@@H]12
[A] hi

[Q] Which category fits this record: COc1ccc(CCNC(=O)[C@@]2(Sc3ccc(C)cc3)CC(=O)N(Cc3ccccc3)[C@@H]2c2ccc(CO)cc2I)cc1
[A] lo

[Q] # classify by composite z-score band: CCN(CC)c1ccc(N2CC=CC34O[C@@H]5C=CCOC(=O)[C@@H]5[C@H]3C(=O)N(C(CO)C(C)C)[C@@H]4C2=O)cc1 (stereo partly drawn)
[A] lo

[Q] Category lookup for the compound NC(=O)NCC#Cc1ccc2c(c1)[C@]1(C(=O)N2)[C@H](c2ccc(OCCO)cc2)N2[C@H](c3ccccc3)[C@H](c3ccccc3)OC(=O)[C@H]2[C@@H]1C(=O)Nc1nc2ccccc2s1
[A] med

[Q] State the band of C=CCNC(=O)[C@H]1[C@@H]2C(=O)O[C@@H](c3ccccc3)[C@@H](c3ccccc3)N2[C@@H](c2ccc(OCCO)cc2)[C@]12C(=O)Nc1ccc(C#CCCO)cc12
[A] lo

[Q] Please report the category associated with C=CCN1C(=O)[C@@]2(O[C@@H](CCO)[C@H]([Si](C)(C)c3ccc(OC)cc3)[C@H]2C)c2cc(N(C=O)c3ccccc3)ccc21 , nothing else.
[A] hi
